Tested on: c-Abl (mouse);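 note: 11-residue human phosphosite peptides and single-mutation variants displayed on the E. coli surface, counted by deep sequencing, each peptide's frequency after selection divided by its frequency in the unselected input library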;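 note: frequency after pTyr selection over input frequency; kinase dosed for 20-30% of maximal phosphorylation in three min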
method-notes: phosphorylation enrichment, bacterial display (enrichment ratio); higher = better substrate or ligand; peptides without Tyr show the background
Give true when the value for phosphorylation enrichment is at least 1. Give false when it is less.

RLLVVYRWTQR [HBB_Y36_P37R] = false

Req: Item KVASVYEAPGF [NT5C_Y65] with phosphorylation enrichment of 1 or above?
Resp: true

Req: Query QITQVCGFFDE [PPP2CA_Y127_Y127C_YF] next
Resp: true

Req: Query RGDCMYASLLG [AR_Y269_P271S] next
Resp: true

Req: Query SLALFYRNVFH [RBL1_Y792_K794N_YF] next
Resp: false
